- Tested on: Hepatotoxicity
- test method notes: FDA HLAED, serum glutamic oxaloacetic transaminase (SGOT) increase
- measurement parameters: human
readout: SGOT Increase - Activity Score

# count of solved cases: 10
CCN[C@H]1C[C@H](C)S(=O)(=O)c2sc(S(N)(=O)=O)cc21 [DORZOLAMIDE]	Inactive
C[C@H]1COc2c(N3CCN(C)CC3)c(F)cc3c(=O)c(C(=O)O)cn1c23.C[C@H]1COc2c(N3CCN(C)CC3)c(F)cc3c(=O)c(C(=O)O)cn1c23.O	Inactive
CCN1CCN(C(=O)N[C@@H](C(=O)N[C@@H]2C(=O)N3C(C(=O)O)=C(CSc4nnnn4C)CS[C@H]23)c2ccc(O)cc2)C(=O)C1=O	Inactive
CCC(=O)O[C@H]1CC[C@H]2[C@@H]3CCC4=CC(=O)CC[C@]4(C)[C@H]3CC[C@]12C [TESTOSTERONE PROPIONATE]	Inactive
CC[C@@]1(O)C(=O)OCc2c1cc1n(c2=O)Cc2cc3c(CN(C)C)c(O)ccc3nc2-1	Inactive
CN1C(=O)OC(C)(C)C1=O	Active
CC(=O)OCC(CCn1cnc2cnc(N)nc21)COC(C)=O	Inactive
CCC(=O)OCC(=O)[C@@]1(OC(=O)CC)[C@H](C)C[C@H]2[C@H]3[C@H]([C@@H](O)C[C@@]21C)[C@@]1(C)C=CC(=O)C=C1C[C@H]3Cl [ALCLOMETASONE DIPROPIONATE]	Inactive
CC(=O)Oc1c(C)cc(OCC(O)CNC(C)C)c(C)c1C (stereo not given)	Inactive
C#CCN(C)[C@H](C)Cc1ccccc1	Inactive

For each of the molecules below, note its SGOT Increase - Activity Score.
1. O=P1(N(CCCl)CCCl)NCCCO1 (stereo not given) [CYCLOPHOSPHAMIDE ANHYDROUS]
2. CC[C@H]1OC(=O)[C@H](C)[C@@H](O[C@H]2C[C@@](C)(OC)[C@@H](O)[C@H](C)O2)[C@H](C)[C@@H](O[C@@H]2O[C@H](C)C[C@H](N(C)C)[C@H]2O)[C@](C)(O)C[C@@H](C)[C@@H]2N[C@@H](COCCOC)O[C@H]([C@H]2C)[C@]1(C)O
3. CCCNCC(O)COc1ccccc1C(=O)CCc1ccccc1 (stereo not given)
4. CC(c1cc2ccccc2s1)N(O)C(N)=O (stereo not given)

A)
1. Active
2. Inactive
3. Active
4. Active

---

- Test system: Hepatotoxicity
- test method notes: FDA HLAED, lactate dehydrogenase (LDH) increase
- measurement parameters: human
Kindly supply the reported LDH Increase - Index Value values for the records listed here.
Numbers only.

# count of solved cases: 6
Cc1nnc2n1-c1ccc(Cl)cc1C(c1ccccc1)=NC2	0.5
CCN(CC)CCNC(=O)c1ccc(N)cc1 [PROCAINAMIDE]	0
CC(C)c1ccc2oc3nc(N)c(C(=O)O)cc3c(=O)c2c1	0
O=C1C(O)=C([C@H]2CC[C@H](c3ccc(Cl)cc3)CC2)C(=O)c2ccccc21	9.1
CC(C)(C)NC[C@H](O)COc1cccc2c1CCCC2=O	0
CNC(=C[N+](=O)[O-])NCCSCc1ccc(CN(C)C)o1	0.3

For each of the molecules below, note its LDH Increase - Index Value.
1. COCC(=O)Nc1c(I)c(C(=O)NCC(O)CO)c(I)c(C(=O)N(C)CC(O)CO)c1I (stereo not given) [IOPROMIDE]
2. CC[C@@H]1C(=O)OC[C@@H]1Cc1cncn1C
3. Clc1ccc2nsnc2c1NC1=NCCN1
4. NCCCNCCSP(=O)(O)O

A)
[0, 0, 8.3, 41.5]

For each of the molecules below, note its LDH Increase - Index Value.
1. C[C@H]1C[C@H]2[C@@H]3CCC4=CC(=O)C=C[C@]4(C)[C@@]3(Cl)[C@@H](O)C[C@]2(C)[C@@]1(O)C(=O)CO
2. CNCCCC12CCC(c3ccccc31)c1ccccc12
3. CN1C(C(=O)Nc2ccccn2)=C(O)c2ccccc2S1(=O)=O
4. CC(C)C(=O)Nc1ccc([N+](=O)[O-])c(C(F)(F)F)c1 [FLUTAMIDE]

A)
1: 0; 2: 0; 3: 0.5; 4: 8.4

For each of the molecules below, note its LDH Increase - Index Value.
1. C#CCN(C)[C@H](C)Cc1ccccc1
2. CC(C)(C)NCC(O)c1ccc(O)c(CO)n1 (stereo not given)
3. Cc1cccc(Nc2ccncc2S(=O)(=O)NC(=O)NC(C)C)c1 [TORSEMIDE]
4. CCn1cc(C(=O)O)c(=O)c2cc(F)c(N3CCNCC3)cc21
5. CO[C@@]1(NC(=O)Cc2cccs2)C(=O)N2C(C(=O)O)=C(COC(N)=O)CS[C@@H]21
6. Nc1nc2ccc(OC(F)(F)F)cc2s1

A)
1: 0; 2: 0; 3: 0; 4: 3.7; 5: 0; 6: 22.6

---

- System: Hepatotoxicity
- test method notes: FDA HLAED, lactate dehydrogenase (LDH) increase
- measurement parameters: human
readout: LDH Increase - Number of Reports

# count of solved cases: 8
O=C(O)C1=C(CSc2nnnn2CS(=O)(=O)O)CS[C@@H]2[C@H](NC(=O)[C@H](O)c3ccccc3)C(=O)N12 [CEFONICID]	< 4
Cc1cn([C@H]2C[C@H](N=[N+]=[N-])[C@@H](CO)O2)c(=O)[nH]c1=O [ZIDOVUDINE]	>= 4
CC(C)(C)NC(=O)[C@@H]1C[C@@H]2CCCC[C@@H]2CN1C[C@@H](O)[C@H](Cc1ccccc1)NC(=O)[C@H](CC(N)=O)NC(=O)c1ccc2ccccc2n1	< 4
NCC1(CC(=O)O)CCCCC1 [GABAPENTIN]	< 4
OC(Cn1cncn1)(Cn1cncn1)c1ccc(F)cc1F [FLUCONAZOLE]	>= 4
CN(C)CC/C=C1/c2ccccc2COc2ccc(CC(=O)O)cc21 [OLOPATADINE]	< 4
CCOC(=O)[C@H](CCc1ccccc1)N[C@@H](C)C(=O)N1[C@H](C(=O)O)C[C@@H]2CCC[C@@H]21	< 4
C[C@@H]1C[C@H]2[C@H]3[C@H]([C@@H](O)C[C@]2(C)[C@@]1(O)C(=O)CO)[C@@]1(C)C=CC(=O)C=C1C[C@H]3Cl [ALCLOMETASONE]	< 4

For each of the compounds below, note its LDH Increase - Number of Reports.
1. C[C@H]1[C@H](NC(=O)/C(=N\OC(C)(C)C(=O)O)c2csc(N)n2)C(=O)N1S(=O)(=O)O [AZTREONAM]
2. CC(=O)O[C@H]1C[C@@H]2CC[C@@H]3[C@H](CC[C@@]4(C)[C@H]3C[C@H](N3CC[N+](C)(C)CC3)[C@@H]4OC(C)=O)[C@@]2(C)C[C@@H]1N1CC[N+](C)(C)CC1.[Br-].[Br-] [PIPECURONIUM BROMIDE]
3. CC1COc2c(N3CCN(C)CC3)c(F)cc3c(=O)c(C(=O)O)cn1c23 (stereo not given) [OFLOXACIN]
4. COc1cc2nc(N3CCN(C(=O)C4COc5ccccc5O4)CC3)nc(N)c2cc1OC (stereo not given) [DOXAZOSIN]
5. O=C(c1ccccc1)c1ccc2n1CCC2C(=O)O (stereo not given) [KETOROLAC]
6. C[C@@H]1C[C@H]2[C@@H]3CCC4=CC(=O)C=C[C@]4(C)[C@@]3(Cl)[C@@H](O)C[C@]2(C)[C@@]1(O)C(=O)CCl [MOMETASONE]
7. Cc1nccn1CC1CCc2c(c3ccccc3n2C)C1=O (stereo not given) [ONDANSETRON]

A)
1: < 4; 2: < 4; 3: >= 4; 4: < 4; 5: >= 4; 6: < 4; 7: >= 4

---

Kindly supply the reported SGPT Increase - Index Value values for the records listed here.
- Test system: Hepatotoxicity
- test method notes: FDA HLAED, serum glutamic pyruvic transaminase (SGPT) increase
- measurement parameters: human
One number for each entry.

# count of solved cases: 7
CCCc1c2oc(C(=O)O)cc(=O)c2cc2c(=O)cc(C(=O)O)n(CC)c12	0.3
Cn1nnnc1SCC1=C(C(=O)O)N2C(=O)[C@@H](NC(=O)[C@H](O)c3ccccc3)[C@H]2SC1	0
COC(=O)C1=C(C)NC(C)=C(C(=O)OCC(C)C)C1c1ccccc1[N+](=O)[O-] (stereo not drawn)	1.6
Nc1ccn([C@@H]2O[C@H](CO)[C@@H](O)C2(F)F)c(=O)n1	1.4
COc1c(C)c2c(c(O)c1C/C=C(\C)CCC(=O)O)C(=O)OC2	9.6
CCCC1O[C@@H]2C[C@H]3[C@@H]4CCC5=CC(=O)C=C[C@]5(C)[C@H]4[C@@H](O)C[C@]3(C)[C@]2(C(=O)CO)O1 (stereo partly drawn) [BUDESONIDE]	0
Nc1nc2ccc(OC(F)(F)F)cc2s1	22.6

Turning now to a further record.
Hepatotoxicity data for Cc1cccc(C)c1OCC(C)N (stereo not drawn) ; its SGPT Increase - Index Value: 3.6

Attribution: ChEMBL document CHEMBL1697781
